The measured values listed here are drawn from PubChem BioAssay AID588689.

- SYSTEM_TESTED: Genome polyprotein (Dengue virus type 2 (strain 16681-PDK53))
- ASSAY_NAME: flavivirus cap methylation enzyme inhibition – biochemical, confirmation dose response, primary screen (AID 588689)
- SETTINGS: Dengue-2 NS5 methyltransferase capping enzyme assay, at 25 µM, active compounds read high
Among all 340,000 compounds or so, about 1,000 (0.29%) were called active. These entries were drawn from the full list. Potency and affinity values are given separately.
READOUT_LABEL: inhibition (%)

compound=O=C1c2cccc([N+](=O)[O-])c2C(=O)N1c1ccccc1 unit_spec=% recorded_number=0
compound=S=C(Nc1ccccc1Cl)NC1CCCCCC1 unit_spec=% recorded_number=-2.33
compound=O=C(Cc1ccc(Cl)cc1)N/N=C/c1ccncc1 unit_spec=% recorded_number=-1.47
compound=O=C(CN1CCN(C(c2ccccc2)c2ccccc2)CC1)NC(=O)NCc1ccco1 unit_spec=% recorded_number=-1.64
compound=NC(=O)C1CCN(C2=C(NS(=O)(=O)c3ccccc3)C(=O)c3ccccc3C2=O)CC1 unit_spec=% recorded_number=0.77
compound="C=CC(n1cncn1)C(O)(c1ccccc1)c1ccccc1 (configuration not stated)" unit_spec=% recorded_number=-1.2
compound=NC(=O)C1CCN(C2=C(NS(=O)(=O)c3ccc(Cl)cc3)C(=O)c3ccccc3C2=O)CC1 unit_spec=% recorded_number=7.95
compound=CCCOc1ccc(/C=C/C(=O)OCC(=O)N(C)c2c(N)n(Cc3ccccc3)c(=O)[nH]c2=O)cc1OCC unit_spec=% recorded_number=3.69
compound=COc1ccc([N+](=O)[O-])cc1NC(=O)CCN1CCOCC1 unit_spec=% recorded_number=-1.96
compound=C=C(C)CN1C(=O)c2ccccc2C1=O unit_spec=% recorded_number=2.04
compound="CCOC(=O)C(NC(=O)Cc1ccccc1)(Nc1cc(C)on1)C(F)(F)F (configuration not stated)" unit_spec=% recorded_number=-5.64
compound=CC(=O)n1cc(CO)c2ccccc21 unit_spec=% recorded_number=-0.72
compound=Cc1nn(C(=O)c2ccc3c(c2)OCO3)c(N)c1-c1ccccc1 unit_spec=% recorded_number=-2.78
compound=O=C(COc1ccc(Br)cc1)NNC(=S)NC(=O)c1ccccc1[N+](=O)[O-] unit_spec=% recorded_number=10.8
compound=O=C(Nc1ncn[nH]1)c1ccc(S(=O)(=O)N2CCOCC2)cc1 unit_spec=% recorded_number=-3.52
compound=CC(C)(CNC(=O)c1cc(Cl)c(O)c(Cl)c1)N1CCCCC1 unit_spec=% recorded_number=3.57
compound=COc1ccc(CC(=O)Nc2ccc(S(=O)(=O)Nc3cc(OC)nc(OC)n3)cc2)cc1 unit_spec=% recorded_number=23.3
compound=O=C1C=C(Nc2cccnc2)c2ccccc2C1=O unit_spec=% recorded_number=33.2
compound=O=C(C1=C(c2ccccc2)C(=O)c2ccccc2C1=O)c1ccccc1 unit_spec=% recorded_number=3.59
compound=Cc1c([N+](=O)[O-])cc(N2C(=O)C=CC2=O)cc1[N+](=O)[O-] unit_spec=% recorded_number=8.16
compound=O=C(/C(=C(/[O-])c1ccccc1)[n+]1ccccc1)c1ccc([N+](=O)[O-])cc1 unit_spec=% recorded_number=3.25
compound=N#Cc1c(Nc2ccccc2)sc(C(=O)C2CC2)c1N unit_spec=% recorded_number=-8.93
compound=CCOc1ccc(S(=O)(=O)NC(C)(C)C)cc1-c1nc2c(C(C)(C)C)nn(C)c2c(=O)[nH]1 unit_spec=% recorded_number=-2.73
compound=Cc1ccc2nc(-c3ccccc3)cc(C(=O)N3CCc4ccccc4C3)c2c1 unit_spec=% recorded_number=-5.47
compound=O=C1C(Cl)=C(NCCN2CCOCC2)C(=O)c2ccccc21 unit_spec=% recorded_number=4.52
compound=Nn1c(Cc2ccccc2F)nnc1SCC(=O)Nc1cccc(S(=O)(=O)NC2=NCCCCC2)c1 unit_spec=% recorded_number=-0.76
compound=Cc1cc(N2C(=O)C=CC2=O)c([N+](=O)[O-])cc1C unit_spec=% recorded_number=-13.6
compound=COc1ccc(Br)cc1C(=O)NC(=S)Nc1ccc(Cl)c(C(=O)O)c1 unit_spec=% recorded_number=4.69
compound=Cc1ccc([C@@H]2CC=C(C(=O)O)[C@H](c3ccc(Cl)cc3)N2S(=O)(=O)c2ccc(C)cc2)cc1 unit_spec=% recorded_number=19.5
compound=Cc1ccc([C@@H]2CC=C(C(=O)O)[C@H](c3ccccc3)N2S(=O)(=O)c2ccc(C)cc2)cc1 unit_spec=% recorded_number=-3.2
compound=Cc1noc(C)c1C(=O)OCC(=O)N1CCc2ccccc21 unit_spec=% recorded_number=-4.42
compound=Cc1ccc(NC(=O)COC(=O)c2c(C)nn(-c3ccccc3)c2C)cc1 unit_spec=% recorded_number=7.29
compound=CC(=O)C1=C(c2ccc(Br)cc2)C(=O)c2ccccc2C1=O unit_spec=% recorded_number=35
compound="CCCCCCCC(=O)N1c2ccccc2NC(=O)C1CC(=O)Nc1ccc(C(=O)O)cc1 (configuration not stated)" unit_spec=% recorded_number=8.1
compound="CCC1(C)Cc2c(sc3[nH]c(=S)[nH]c(=S)c23)CO1 (configuration not stated)" unit_spec=% recorded_number=-4.57
compound=COC(=O)Cn1cc(C(=O)OC)c2ccccc21 unit_spec=% recorded_number=-2.39
compound=C[C@@H]1CC=C[C@@H]2[C@H]1C(=O)N(Cc1ccccc1)[C@H]2c1cccc(C#Cc2ccccc2)c1 unit_spec=% recorded_number=-4.3
compound=COc1ccc(NC(=O)N(C)C[C@@H]2OCc3cnnn3CCCC(=O)N([C@H](C)CO)C[C@H]2C)cc1 unit_spec=% recorded_number=0.55
compound=CC1(C)Cc2c(sc3[nH]c(=S)[nH]c(=O)c23)CO1 unit_spec=% recorded_number=-1.64
compound=COC(=O)c1ccc(COc2cccnc2[N+](=O)[O-])cc1 unit_spec=% recorded_number=0
compound=Cc1ccc(CNC(=O)Cn2c(=O)c3sccc3n(Cc3ccc([N+](=O)[O-])cc3)c2=O)cc1 unit_spec=% recorded_number=-4.46
compound=Cc1ccc2cc(CCNC(=O)c3cccc([N+](=O)[O-])c3)c(=O)[nH]c2c1C unit_spec=% recorded_number=2.58
